For each entry below, report its fold change of Cadaverine concentration value.
# Test system: Klebsiella aerogenes DSM 30053
# METHOD: fold change of Cadaverine concentration vs plate DMSO controls (fold change (ratio)); higher = more amine produced, active = hit call of the paper (significant change in both replicates, either direction)
# EXPERIMENTAL CONTEXT: incubation time: 27 h, anaerobic, 37 °C
Structures can show the parent of a compound that is named as a salt.
Numbers only.

Cc1c(N(C)CS(=O)(=O)O)c(=O)n(-c2ccccc2)n1C [Dipyrone sodium salt] (20 µM) : 1.02
COc1ccc2[nH]cc(CCNC(C)=O)c2c1 [Melatonin] (20 µM) : 1
C[C@H]1[C@H](NC(=O)/C(=N\OC(C)(C)C(=O)O)c2csc(N)n2)C(=O)N1S(=O)(=O)O [Aztreonam] (20 µM) : 1.06
COc1ccc2c(c1)c(CC(=O)OCC(=O)O)c(C)n2C(=O)c1ccc(Cl)cc1 [Acemetacin] (20 µM) : 1.01
O=S(=O)(O)CCS [Coenzyme M] (20 µM) : 0.986
CC(C(=O)O)c1ccc2c(c1)CC(=O)c1ccccc1S2 (stereo not drawn) [Zaltoprofen] (20 µM) : 1.05
CCCN(CCC)CCc1cccc2c1CC(=O)N2 [Ropinirole hydrochloride] (20 µM) : 0.986

Then there is this molecule:
State its fold change of Cadaverine concentration on Klebsiella aerogenes DSM 30053: NC(=O)Cc1cccc(C(=O)c2ccccc2)c1N [Nepafenac] (20 µM)
1.04

* * *

For each record, write down the corresponding growth.
# System: Klebsiella aerogenes DSM 30053
# METHOD: growth (OD595) fold change vs plate DMSO controls (fold change (ratio)); higher = more growth
# EXPERIMENTAL CONTEXT: incubation time: 27 h, anaerobic, 37 °C
Structures can show the parent of a compound that is named as a salt.
Numbers only.

In the examples that follow, each entry is paired with its recorded growth.
CN(C)c1ccc(O)c2c1C[C@H]1C[C@H]3[C@H](N(C)C)C(=O)C(C(N)=O)=C(O)[C@@]3(O)C(=O)C1=C2O [Minocycline hydrochloride] (20 µM) : 0.394
CCOC(=O)C1=C(C)NC(C)=C(C(=O)OC)C1c1cccc([N+](=O)[O-])c1 (stereo unspecified) [Nitrendipine] (20 µM) : 1.02

I have 2 compounds here; please give me growth for each one.
1. OCCN1CCN(CCCN2c3ccccc3C=Cc3ccccc32)CC1 [Opipramol dihydrochloride] (20 µM)
2. Cc1cccc(N(C)C(=S)Oc2ccc3ccccc3c2)c1 [Tolnaftate] (20 µM)

1. 0.983
2. 0.984

Provide growth values for the following items, in order.
1. CC[C@H](C)[C@H](N)C1=N[C@H](C(=O)N[C@@H](CC(C)C)C(=O)N[C@H](CCC(=O)O)C(=O)N[C@H](C(=O)N[C@H]2CCCCNC(=O)[C@H](CC(N)=O)NC(=O)[C@@H](CC(=O)O)NC(=O)[C@H](Cc3cnc[nH]3)NC(=O)[C@@H](Cc3ccccc3)NC(=O)[C@H]([C@@H](C)CC)NC(=O)[C@@H](CCCN)NC2=O)[C@@H](C)CC)CS1 [Bacitracin] (20 µM)
2. NC(=O)C1CO1 (stereo unspecified) [Glycidamide] (20 µM)
3. Nc1ccn([C@@H]2CS[C@H](CO)O2)c(=O)n1 [Lamivudine] (20 µM)
4. N=C(N)NCc1cccc(I)c1 [Iobenguane sulfate] (20 µM)
5. N[C@@H](Cc1cc(I)c(Oc2ccc(O)c(I)c2)c(I)c1)C(=O)O [Liothyronine] (20 µM)
6. C#C[C@]1(O)CC[C@H]2[C@@H]3CCC4=CC(=O)CC[C@@H]4[C@H]3CC[C@@]21CC [(D-) Norgestrel] (20 µM)
7. OC[C@H]1O[C@@H](c2ccc(Cl)c(Cc3ccc(O[C@H]4CCOC4)cc3)c2)[C@H](O)[C@@H](O)[C@@H]1O [Empagliflozin] (20 µM)
8. CCCCC(CC)CNC(=N)NC(=N)NCCCCCCNC(=N)NC(=N)NCC(CC)CCCC (stereo unspecified) [Alexidine dihydrochloride] (20 µM)

1. 1.02
2. 0.998
3. 0.992
4. 0.971
5. 1.03
6. 1.02
7. 1
8. 0.967

Please give growth, item by item, for the list that follows.
1. CCCSc1nc(N[C@@H]2C[C@H]2c2ccc(F)c(F)c2)c2nnn([C@@H]3C[C@H](OCCO)[C@@H](O)[C@H]3O)c2n1 [Ticagrelor] (20 µM)
2. COc1ccccc1OCC(O)CO (stereo unspecified) [Guaifenesin] (20 µM)
3. Cc1cc(-n2c(=O)[nH]c(=O)n(C)c2=O)ccc1Oc1ccc(SC(F)(F)F)cc1 [Toltrazuril] (20 µM)
4. CC(C)[C@H](N)C(=O)OCC(CO)OCn1cnc2c(=O)nc(N)[nH]c21 (stereo partly specified) [Valganciclovir hydrochloride] (20 µM)

1. 1.02
2. 0.98
3. 1.05
4. 1.03

* * *

Kindly supply the reported growth values for the records listed here.
# Test system: Clostridium sporogenes DSM 1664
# METHOD: growth (OD595) fold change vs plate DMSO controls (fold change (ratio)); higher = more growth
# EXPERIMENTAL CONTEXT: incubation time: 27 h, anaerobic, 37 °C
One number for each entry.

Answered examples (3):
NC(=O)C1CO1 (centres undefined) [Glycidamide] (20 µM) : 0.988
O=C(O)CN(CCN(CC(=O)O)CC(=O)O)CCN(CC(=O)O)CC(=O)O [Pentetic acid] (20 µM) : 1.27
CC(C)NNC(=O)c1ccncc1 [Iproniazide phosphate] (20 µM) : 1.05

Please turn your attention to the following entry.
Quick one: growth of CC=CC1=C(C(=O)O)N2C(=O)[C@@H](NC(=O)[C@H](N)c3ccc(O)cc3)[C@H]2SC1 [Cefprozil] (20 µM) ?
0.404

* * *

# Test system: Ruminococcus gnavus DSM 108212
# METHOD: fold change of Tryptamine concentration vs plate DMSO controls (fold change (ratio)); higher = more amine produced, active = hit call of the paper (significant change in both replicates, either direction)
# EXPERIMENTAL CONTEXT: incubation time: 27 h, anaerobic, 37 °C
Counter-ions that a name gives are not always drawn.
Threshold rule: fold change of Tryptamine concentration greater than or equal to 0.9 is true; below that, false.

Study these solved cases before continuing.
Nc1nc(=O)c2c([nH]1)NC[C@@H](CNc1ccc(C(=O)N[C@@H](CCC(=O)O)C(=O)O)cc1)N2C=O [Folinic acid calcium salt] (20 µM) : true
Nc1ncnc2c1ncn2C1OC(COP(=O)(O)O)C(O)C1O (stereo not given) [Adenosine 5'-monophosphate monohydrate] (20 µM) : true
CC(C)/N=c1\cc2n(-c3ccc(Cl)cc3)c3ccccc3nc-2cc1Nc1ccc(Cl)cc1 [Clofazimine] (20 µM) : false
O=C(CCCN1CCN(c2ccccn2)CC1)c1ccc(F)cc1 [Azaperone] (20 µM) : true
Cn1c(=O)c2[nH]cnc2n(C)c1=O [Aminophylline] (20 µM) : true
C[C@]12C[C@H](O)[C@H]3[C@@H](CCC4=CC(=O)CC[C@@]43C)[C@@H]1CC[C@@H]2C(=O)CO [Corticosterone] (20 µM) : true
NC[C@@H]1O[C@H](O[C@H]2[C@@H](O)[C@H](O[C@@H]3[C@@H](O)[C@H](N)C[C@H](N)[C@H]3O[C@H]3O[C@H](CO)[C@@H](O)[C@H](O)[C@H]3N)O[C@@H]2CO)[C@H](N)[C@@H](O)[C@@H]1O [Paromomycin sulfate] (20 µM) : true
CCN(CC)CCNC(=O)COc1ccc(OC)cc1 [Mefexamide hydrochloride] (20 µM) : true

Determine whether this compound has fold change of Tryptamine concentration no lower than 0.9: CC(C)Nc1cccnc1N1CCN(C(=O)c2cc3cc(NS(C)(=O)=O)ccc3[nH]2)CC1 [Delavirdine] (20 µM)
true

API: above_or_equal(metric=fold change of Tryptamine concentration, cutoff=0.9) for item CCCSc1nc(N[C@@H]2C[C@H]2c2ccc(F)c(F)c2)c2nnn([C@@H]3C[C@H](OCCO)[C@@H](O)[C@H]3O)c2n1 [Ticagrelor] (20 µM)
false

Could you tell me if the measured fold change of Tryptamine concentration of Cc1onc(-c2c(Cl)cccc2Cl)c1C(=O)N[C@@H]1C(=O)N2[C@@H]1SC(C)(C)[C@@H]2C(=O)O [Dicloxacillin sodium salt hydrate] (20 µM) reaches 0.9 or more?
false

Check if fold change of Tryptamine concentration >= 0.9 (inclusive). Item: Nc1ccn([C@@H]2O[C@H](CO)[C@@H](O)[C@@H]2O)c(=O)n1 [Cytarabine] (20 µM)
false

Determine whether this compound has fold change of Tryptamine concentration no lower than 0.9: Cc1c(N(C)CS(=O)(=O)O)c(=O)n(-c2ccccc2)n1C [Dipyrone sodium salt] (20 µM)
true

Identify whether the reported fold change of Tryptamine concentration of the following compound is 0.9 or greater: CCOC(=O)C1=C(C)NC(C)=C(C(=O)OCC)C1c1ccccc1/C=C/C(=O)OC(C)(C)C [Lacidipine] (20 µM)
true

The measured values listed here are drawn from the supplement of paper PMC12494721.
